Record form. Attribute: growth. Fill in for each entry.
# Tested on: U251 CNS
# procedureText: NCI-60 one-dose screen, 48 h (100 = growth as untreated, 0 = no growth, -100 = all killed)
# assaySetup: 10 µM unless noted
Compounds without any hit were thinned out: in the full panel of roughly 83,000, 20% have a hit.
Numbers only, in %.

Worked cases, growth given:
INSERT INTO results (compound, resultunit, measurednumber) VALUES
  ('COc1ccc2c(c1)c(-c1cc(N)n3nc(-c4cn(C)c5ccccc45)cc3n1)cn2C', '%', -80),
  ('COc1cccc(/C=C/c2nc3ccccc3c(=O)n2CC(=O)Nc2ccc(Cl)cc2)c1', '%', 27.8);

Respectfully, I request growth for each entry included below.
1. CC(C)Sc1nc(NCCc2c[nH]c3ccccc23)c(C#N)c(-c2ccc(F)cc2)n1
2. C#CCOc1cc(N(CC)CC)ccc1C(C(=O)NC(C)(C)C)N(C(=O)C1CCc2cc(F)ccc2O1)c1ccc(Br)cc1 (stereo not drawn)
3. O=C(N=Nc1c(O)[nH]c2ccc([N+](=O)[O-])cc12)c1ccc2nc(-c3ccccc3)[nH]c2c1
4. C=CC(=O)Nc1ccc(C)c(Oc2ccc(Cl)cc2)c1
5. C#CCOc1cc(N(CC)CC)ccc1C(C(=O)NC(C)(C)C)N(C(=O)C1CCc2cc(F)ccc2O1)c1ccccc1Br (stereo not drawn)
6. Cn1cc(-c2cc3nc(-c4cn(C)c5ncccc45)cc(N)n3n2)c2ccccc21

1. 20.7
2. 87.2
3. 34.8
4. 36.5
5. 48.6
6. -8.69

* * *

# System: HT29 colon
# procedureText: NCI-60 one-dose screen, 48 h
# assaySetup: 10 µM unless noted
This is part of a sample that, as a whole, favours compounds with a hit. Of some 83,000 tested, about 20% had one in any assay. The source made the active and inactive calls. Rule for the calls: active = growth percent below 10; inactive = the rest.
Pick one and only one: 1 (yes) = active, 0 (no) = inactive

The examples below pair each entry with its known result.
INSERT INTO measurements (compound, assignedclass) VALUES
  ('Cc1ccc(C2CC(c3ccc(S(=O)(=O)NCCNc4nc(Nc5ccc(F)cc5)nc(N(C)C)n4)cc3)=Nc3c(N)nc(N)nc3N2)cc1 (configuration not stated)', '1 (yes)'),
  ('O=c1c2ccccc2nc(-c2ccccc2)n1/N=C/c1ccc2ccccc2c1', '0 (no)'),
  ('C=C1CC[C@@H]2[C@]3(C)COC(c4ccccc4)O[C@@H]3CC[C@@]2(C)[C@@H]1C/C=C1/C(=O)OCC1OC(C)=O (some centres not stated)', '1 (yes)'),
  ('CC(=O)OC[C@@]1(C)C2CC[C@]3(C)C(CC=C4C5CC(C)(C)CC[C@]5(C(=O)Nc5cccc(C)c5)CC[C@]43C)[C@@]2(C)C[C@@H](OC(C)=O)[C@@H]1OC(C)=O (some centres not stated)', '0 (no)');

What did the test return for COC(=O)C[C@](O)(CCCC(C)(C)O)C(=O)O[C@H]1C(OC)=C[C@@]23CCCN2CCc2cc4c(cc2[C@@H]13)OCO4 ?
1 (yes)

What did the test return for O=C(c1ccc(OCCN2CCOCC2)cc1)C1[C@H](c2ccc(Cl)cc2)[C@@H](c2ccccc2)NC12C(=O)Nc1ccc(Br)cc12 (some centres not stated) ?
1 (yes)

* * *

# Tested on: U251 CNS
# procedureText: NCI-60 one-dose screen, 48 h (100 = growth as untreated, 0 = no growth, -100 = all killed)
# assaySetup: 10 µM unless noted
This is part of a sample that, as a whole, favours compounds with a hit. Of some 83,000 tested, about 20% had one in any assay.
Field 'label' (enum: 1.0 / 0.0). Set to 1.0 when growth is strictly under 50%; else 0.0.

The examples below pair each entry with its known result.
INSERT INTO measurements (molecule, assignedclass) VALUES
  ('COc1ccc(C(=O)/C=C/c2cccnc2)cc1S(N)(=O)=O', 1.0),
  ('COc1cc2c(c(OC)c1OC)C(=O)CC(c1cccc(NC(=O)[C@@H](N)CC(C)C)c1)O2 (stereo not given in full)', 0.0),
  ('N/C(=N\N=C\c1ccc([N+](=O)[O-])cc1)c1c(N)nc(=S)[nH]c1-c1ccc(Cl)cc1Cl', 0.0);

Now consider a different molecule.
Answer whether the molecule Cc1sc(C(NC(=O)OCCn2c([N+](=O)[O-])cnc2C)C(F)(F)Cl)nc1-c1ccc(OC(F)(F)F)cc1 (stereo not given) has growth strictly less than 50%
1.0

* * *

# System: SW-620 colon
# procedureText: NCI-60 one-dose screen, 48 h (100 = growth as untreated, 0 = no growth, -100 = all killed)
# assaySetup: 10 µM unless noted
# Description: Growth inhibition of the SW-620 human tumor cell line is measured as a screen for anti-cancer activity. Cells are grown in 96 well plates and exposed to the test compound for 48 hours. Compounds are tested at a single concentration, which is 10^-5 M for most compounds. The reported endpoint is percent growth (GI% or GIPRCNT), where numbers from 0 - 100% represent growth inhibition, and numbers from -100% - 0 represent cell death. For example, a value of 40 represents 60% growth inhibition. […]
The panel holds about 83,000 compounds, 20% with a hit somewhere; the sample as a whole holds those more often.
Record form. Attribute: growth. Fill in for each entry.
Give bare numbers, in %.

Worked cases, growth given:
INSERT INTO results (compound, observable, resultunit, measurednumber) VALUES
  ('NS(=O)(=O)c1ccc(CCNC(=O)CSc2ccc(-c3ccc(Br)cc3)nn2)cc1', 'growth', '%', 72.2),
  ('Cc1ccc(C2CC(c3ccc(S(=O)(=O)NCCNc4nc(Nc5ccc(F)cc5)nc(N(C)C)n4)cc3)=Nc3c(N)nc(N)nc3N2)cc1 (centres undefined)', 'growth', '%', 54.1),
  ('CC12CC[C@@H]3[C@]4(C)COC(c5cn[nH]c5-c5ccc(Br)cc5)O[C@@H]4CC[C@@]3(C)[C@@H]1CC(C1=CCOC1=O)O2 (some centres undefined)', 'growth', '%', 62.1);

--- query ---
Hello, please tell me recorded growth for this one: O=C(NNc1nc2cc(F)ccc2n2c(CN3CC4CNCC4C3)ccc12)c1ccncn1 (centres undefined)
31.3

* * *

# Tested on: HCC-2998 colon
# procedureText: NCI-60 one-dose screen, 48 h (100 = growth as untreated, 0 = no growth, -100 = all killed)
# assaySetup: 10 µM unless noted
About 83,000 compounds went through this panel and 20% of them were active in at least one assay; those are over-represented in the sample as a whole. Active and inactive are the calls of the source. The calls were made as follows: active = growth percent below 10; inactive = the rest.
Record form. Attribute: growth. Fill in for each entry.

Worked cases, growth given:
INSERT INTO assay_data (smilesnotation, result) VALUES
  ('O=C(Nc1ccc(C(F)(F)F)cc1)Nc1ccc2oc(=O)ccc2c1', '32.5% (inactive)'),
  ('COc1cccc(-c2c(C#N)c(-c3ccc(Cl)cc3)nc3n[nH]c(-c4ccc(Cl)cc4)c23)c1', '56.6% (inactive)');

--- query ---
Hello, please tell me recorded growth for this one: Cn1cc(-c2cc(N)n3nc(-c4cn(C)c5ccc(Cl)cc45)cc3n2)c2ccccc21
105% (inactive)

* * *

# Tested on: NCI-H226 lung
# procedureText: NCI-60 one-dose screen, 48 h
# assaySetup: 10 µM unless noted
Compounds without any hit were thinned out: in the full panel of roughly 83,000, 20% have a hit. Calls of active or inactive are those of the source. The calls were made as follows: active = growth percent below 10; inactive = the rest.
Pick one and only one: 1.0 for active, 0.0 for inactive

The examples below pair each entry with its known result.
INSERT INTO assay_data (compound, subjectoftest, assignedclass) VALUES
  ('Clc1cccc(Cl)c1/C=C/c1cc(/C=C/c2ccc(Br)cc2)c2ccccc2n1', 'NCI-H226 lung', 0.0),
  ('O=C(Nc1ccc(C(F)(F)F)cc1)Nc1ccc2oc(=O)ccc2c1', 'NCI-H226 lung', 0.0),
  ('C#CCOc1cc(N(CC)CC)ccc1C(C(=O)NC(C)(C)C)N(C(=O)C1CCc2cc(F)ccc2O1)c1ccc(F)c(Cl)c1 (configuration not stated)', 'NCI-H226 lung', 0.0),
  ('CCCSc1nc(Nc2ccc(S(N)(=O)=O)cc2)c(C#N)c(-c2cc(OC)c(OC)c(OC)c2)n1', 'NCI-H226 lung', 0.0),
  ('O=c1[nH]n(C(=S)N/N=C/c2ccccc2Cl)c(=O)c2ccccc12', 'NCI-H226 lung', 1.0);

What did the test return for Cc1ccc(C(=O)CSc2nc3ccc(C)cc3c(=O)n2-c2ccc(F)cc2)cc1 ?
0.0

What did the test return for Cn1cc(-c2nc(N)nnc2-c2c[nH]c3ccc(Br)cc23)c2cccnc21 ?
0.0

What did the test return for CCCn1cc(-c2nc(Nc3ccc(C(=O)NCCCCNc4cccc5c4C(=O)N(C4CCC(=O)NC4=O)C5=O)cc3)nc3[nH]ccc23)cn1 (configuration not stated) ?
0.0

What did the test return for CN1CCN(c2ccc(C(=O)/C=C/c3cc(C(F)(F)F)cc(C(F)(F)F)c3)cc2)CC1 ?
1.0

What did the test return for COc1ccc([C@H](C)Nc2nc(Cl)nc3ccccc23)cc1 ?
0.0
